System: DSH1 (Bladder Carcinoma)
PROTOCOL: combination Emax (second highest fraction inhibited in the dose matrix, 72 h); higher = more inhibition; extreme values may be limits of the assay
Known combination Emax of a selection of compounds
Simply state the number, no unit and no words.

As a guide, the following entries are already answered.
-- ask Which combination Emax is listed for Cn1cnc2c(F)c(Nc3ccc(Br)cc3Cl)c(C(=O)NOCCO)cc21 [Selumetinib] + C=CCn1c(=O)c2cnc(Nc3ccc(N4CCN(C)CC4)cc3)nc2n1-c1cccc(C(C)(C)O)n1 [AZD1775] (first compound max 10 µM, partner max 1 µM) ?
-- reply 0.503

-- ask What measured combination Emax goes with COc1nnc2ccc(N3CCC(c4ccc(OCCN5CCN(C)C(=O)[C@H]5C)cc4)CC3)nn12 [AZD5153] + CC1(C)CCC(CN2CCN(c3ccc(C(=O)NS(=O)(=O)c4ccc(NCC5CCOCC5)c([N+](=O)[O-])c4)c(Oc4cnc5[nH]ccc5c4)c3)CC2)=C(c2ccc(Cl)cc2)C1 [Venetoclax] (first compound max 1 µM, 7x7, partner max 1 µM) ?
-- reply 0.623

-- ask Record request: combination Emax value, item NC1(C(=O)N[C@@H](CCO)c2ccc(Cl)cc2)CCN(c2ncnc3[nH]ccc23)CC1 [Capivasertib] + Cn1cnc2c(F)c(Nc3ccc(Br)cc3Cl)c(C(=O)NOCCO)cc21 [Selumetinib] (first compound max 10 µM, 7x7, partner max 10 µM)
-- reply 0.954

Now consider the entry below.
-- ask Looking for the measured combination Emax of COc1cccc(OCCCN)c1-c1cc(Nc2cnc(C#N)cn2)n[nH]1 [Prexasertib] + C=CCn1c(=O)c2cnc(Nc3ccc(N4CCN(C)CC4)cc3)nc2n1-c1cccc(C(C)(C)O)n1 [AZD1775] (first compound max 1 µM, partner max 1 µM) , can you help?
-- reply 0.84

====

Tested on: C3A (Hepatocellular Carcinoma)
PROTOCOL: Bliss excess, mean over the matrix (fraction); higher = more synergy
Quick reference: Bliss excess of the listed items.

Consider the following illustrative entries.
-- ask Value lookup for Bliss excess; key = CN(CCO)CC[C@H](CSc1ccccc1)Nc1ccc(S(=O)(=O)NC(=O)c2ccc(N3CCC([C@@H](O)c4ccccc4-c4ccc(Cl)cc4)CC3)cc2)cc1S(=O)(=O)C(F)(F)F [AZD4320] + Cc1cc2ncnn2cc1Nc1ncc2c(n1)n(C1CCOCC1)c(=O)n2C [AZD7648] (first compound max 1 µM, 7x7, partner max 10 µM)
-- reply -0.0546

-- ask Dear colleague, I am looking for the recorded Bliss excess of the following compound: CN(CCO)CC[C@H](CSc1ccccc1)Nc1ccc(S(=O)(=O)NC(=O)c2ccc(N3CCC([C@@H](O)c4ccccc4-c4ccc(Cl)cc4)CC3)cc2)cc1S(=O)(=O)C(F)(F)F [AZD4320] + C[C@@H]1COCCN1C2=NC(=NC(=C2)C3(CC3)[S@](=N)(=O)C)C4=C5C=CNC5=NC=C4 [AZD6738] (first compound max 1 µM, 7x7, partner max 10 µM)
-- reply -0.016

-- ask For CC(=O)c1c(C)c2cnc(Nc3ccc(N4CCNCC4)cn3)nc2n(C2CCCC2)c1=O [Palbociclib] + Cc1c2c(nn1C)CSCc1cc(n(C)n1)CSc1cc(c3ccccc3c1)OCCCc1c(C(=O)O)n(C)c3c-2c(Cl)ccc13 [AZD5991] (first compound max 10 µM, 7x7, partner max 1 µM) , what is its reported Bliss excess?
-- reply 0.0027

-- ask Bliss excess for CN(C)CCCOc1ccc(-c2ccc3ncc4c(c3c2)n(C2CCOCC2)c(=O)n4C)cn1 [AZD0156] + O=C(c1cc(Cc2n[nH]c(=O)c3ccccc23)ccc1F)N1CCN(C(=O)C2CC2)CC1 [Olaparib] (first compound max 3 µM, partner max 3 µM) ?
-- reply -0.0171

-- ask Quick one: Bliss excess for CC(=O)c1c(C)c2cnc(Nc3ccc(N4CCNCC4)cn3)nc2n(C2CCCC2)c1=O [Palbociclib] + Cn1cnc2c(F)c(Nc3ccc(Br)cc3Cl)c(C(=O)NOCCO)cc21 [Selumetinib] (first compound max 10 µM, 7x7, partner max 10 µM) ?
-- reply -0.0011

***
-- ask # get_value(readout='Bliss excess', item= COc1nnc2ccc(N3CCC(c4ccc(OCCN5CCN(C)C(=O)[C@H]5C)cc4)CC3)nn12 [AZD5153] + Cn1cnc2c(F)c(Nc3ccc(Br)cc3Cl)c(C(=O)NOCCO)cc21 [Selumetinib] (first compound max 1 µM, 7x7, partner max 10 µM) )
-- reply -0.0272

====

Test system: RH-1 (Ewing's Sarcoma)
PROTOCOL: combination Emax (second highest fraction inhibited in the dose matrix, 72 h); higher = more inhibition; extreme values may be limits of the assay
OUTCOME MEASURE: combination Emax
Quick one: just the number, no unit, thanks!

-- ask Quick check: combination Emax on RH-1 (Ewing's Sarcoma), item CC1(C)CCC(CN2CCN(c3ccc(C(=O)NS(=O)(=O)c4ccc(NCC5CCOCC5)c([N+](=O)[O-])c4)c(Oc4cnc5[nH]ccc5c4)c3)CC2)=C(c2ccc(Cl)cc2)C1 [Venetoclax] + C1CN(CCC1(C(=O)N[C@@H](CCO)C2=CC=C(C=C2)Cl)N)C3=NC=NC4=C3C=CN4 [Capivasertib] (first compound max 1 µM, 7x7, partner max 3 µM) ?
-- reply 0.213

-- ask Under RH-1 (Ewing's Sarcoma): combination Emax value of Cc1c2c(nn1C)CSCc1cc(n(C)n1)CSc1cc(c3ccccc3c1)OCCCc1c(C(=O)O)n(C)c3c-2c(Cl)ccc13 [AZD5991] + C[C@@H](Nc1cc(F)cc(F)c1)c1cc(C(=O)N(C)C)cc2c(=O)cc(N3CCOCC3)oc12 [AZD8186] (first compound max 1 µM, 7x7, partner max 3 µM) ?
-- reply 0.827

-- ask State its combination Emax on RH-1 (Ewing's Sarcoma): CC(=O)c1c(C)c2cnc(Nc3ccc(N4CCNCC4)cn3)nc2n(C2CCCC2)c1=O [Palbociclib] + Cc1c2c(nn1C)CSCc1cc(n(C)n1)CSc1cc(c3ccccc3c1)OCCCc1c(C(=O)O)n(C)c3c-2c(Cl)ccc13 [AZD5991] (first compound max 10 µM, 7x7, partner max 1 µM)
-- reply 0.853

-- ask Please provide the recorded combination Emax for CC(=O)c1c(C)c2cnc(Nc3ccc(N4CCNCC4)cn3)nc2n(C2CCCC2)c1=O [Palbociclib] + CC1(C)CCC(CN2CCN(c3ccc(C(=O)NS(=O)(=O)c4ccc(NCC5CCOCC5)c([N+](=O)[O-])c4)c(Oc4cnc5[nH]ccc5c4)c3)CC2)=C(c2ccc(Cl)cc2)C1 [Venetoclax] (first compound max 10 µM, 7x7, partner max 1 µM) , tested on RH-1 (Ewing's Sarcoma).
-- reply 0.277

-- ask I'm curious: which combination Emax was measured for COc1nnc2ccc(N3CCC(c4ccc(OCCN5CCN(C)C(=O)[C@H]5C)cc4)CC3)nn12 [AZD5153] + CN(CC[C@H](CSC1=CC=CC=C1)NC2=C(C=C(C=C2)S(=O)(=O)NC(=O)C3=CC=C(C=C3)N4CCC(CC4)[C@H](C5=CC=CC=C5C6=CC=C(C=C6)Cl)O)S(=O)(=O)C(F)(F)F)CCO [AZD4320] (first compound max 1 µM, 7x7, partner max 1 µM) tested on RH-1 (Ewing's Sarcoma)?
-- reply 0.49

Okay, next one:
-- ask Request - read-out combination Emax | tested on RH-1 (Ewing's Sarcoma) | molecule COc1cccc(OCCCN)c1-c1cc(Nc2cnc(C#N)cn2)n[nH]1 [Prexasertib] + CCc1c2c(nc3ccc(O)cc13)-c1cc3c(c(=O)n1C2)COC(=O)[C@]3(O)CC [SN-38] (first compound max 1 µM, 7x7, partner max 0.3 µM)
-- reply 1

====

Entries and their Bliss excess values follow.
Tested on: NCI-H2595 (Mesothelioma)
PROTOCOL: Bliss excess, mean over the matrix (fraction); higher = more synergy
The reply should be a number, written without any unit.

-- ask Item under review: Cc1c2c(nn1C)CSCc1cc(n(C)n1)CSc1cc(c3ccccc3c1)OCCCc1c(C(=O)O)n(C)c3c-2c(Cl)ccc13 [AZD5991] + CN(C)CCCOc1ccc(-c2ccc3ncc4c(c3c2)n(C2CCOCC2)c(=O)n4C)cn1 [AZD0156] (first compound max 1 µM, 7x7, partner max 1 µM) . Reported Bliss excess?
-- reply -0.0082

-- ask Any idea what Bliss excess was measured for COc1nnc2ccc(N3CCC(c4ccc(OCCN5CCN(C)C(=O)[C@H]5C)cc4)CC3)nn12 [AZD5153] + C[C@@H]1COCCN1C2=NC(=NC(=C2)C3(CC3)[S@](=N)(=O)C)C4=C5C=CNC5=NC=C4 [AZD6738] (first compound max 1 µM, 7x7, partner max 10 µM) ?
-- reply 0.0346

====

Test system: RH-1 (Ewing's Sarcoma)
PROTOCOL: Bliss excess, mean over the matrix (fraction); higher = more synergy
OUTCOME MEASURE: Bliss excess

-- ask State the recorded Bliss excess for this entry: COc1cc2c(cc1OCCCCCOc1cc3c(cc1OC)C(=O)N1C=C(C)C[C@H]1C=N3)N=C[C@@H]1CC(C)=CN1C2=O [SG3199] + O=C(c1cc(Cc2n[nH]c(=O)c3ccccc23)ccc1F)N1CCN(C(=O)C2CC2)CC1 [Olaparib] (first compound max 0.001 µM, 7x7, partner max 10 µM)
-- reply -0.0035

-- ask I have this compound here, CC1(C)CCC(CN2CCN(c3ccc(C(=O)NS(=O)(=O)c4ccc(NCC5CCOCC5)c([N+](=O)[O-])c4)c(Oc4cnc5[nH]ccc5c4)c3)CC2)=C(c2ccc(Cl)cc2)C1 [Venetoclax] + C=CCn1c(=O)c2cnc(Nc3ccc(N4CCN(C)CC4)cc3)nc2n1-c1cccc(C(C)(C)O)n1 [AZD1775] (first compound max 1 µM, partner max 1 µM) , and I need its recorded Bliss excess.
-- reply -0.0123

-- ask Given the entry COc1nnc2ccc(N3CCC(c4ccc(OCCN5CCN(C)C(=O)[C@H]5C)cc4)CC3)nn12 [AZD5153] + CCN(CCO)CCCOc1ccc2c(Nc3cc(CC(=O)Nc4cccc(F)c4)[nH]n3)ncnc2c1 [AZD2811] (first compound max 1 µM, 7x7, partner max 1 µM) , report its measured Bliss excess.
-- reply 0.0025

Continuing:
-- ask Consider the compound shown here: NC1(C(=O)N[C@@H](CCO)c2ccc(Cl)cc2)CCN(c2ncnc3[nH]ccc23)CC1 [Capivasertib] + CC(=O)c1c(C)c2cnc(Nc3ccc(N4CCNCC4)cn3)nc2n(C2CCCC2)c1=O [Palbociclib] (first compound max 10 µM, 7x7, partner max 10 µM) What is its recorded Bliss excess?
-- reply -0.0427
